tested on: P. yoelii EEF; assay: P. yoelii liver-stage; format: cell-based, Plasmodium yoelii; details: 10 μM; ±SD; DMSO control 160 to 180 μm^2; smallest size detected 9 μm^2
REPORTED METRIC: Median parasite area

CC[C@@H](C(=O)[C@@H](C)[C@@H](O)[C@H](C)CCc1ccc(C)c(O)c1C(=O)O)[C@H]1O[C@](CC)([C@H]2CC[C@](O)(CC)[C@H](C)O2)C[C@@H]1C [Lasalocid]	< 9 μm^2

(Q) Please give the documented Median parasite area of C[C@@H]1C[C@@H]([C@H](O)CC2CC(=O)NC(=O)C2)C(=O)[C@@H](C)C1 [Cycloheximide]
(A) <9 μm^2

(Q) Please give the documented Median parasite area of OC(c1cc(C(F)(F)F)nc2c(C(F)(F)F)cccc12)C1CCCCN1 (centres unmarked) [Mefloquine]
(A) < 9 μm^2

(Q) Please give the documented Median parasite area of COc1cc(NC(C)CCCN)c2ncccc2c1 (centres unmarked) [Primaquine]
(A) < 9 μm^2

(Q) Please give the documented Median parasite area of CCN(CC)CCCC(C)Nc1ccnc2cc(Cl)ccc12 (centres unmarked) [Chloroquine]
(A) < 9 μm^2
